- target.under.test: T1, hu-sCD47-6His; extracellular domain of human CD47 antigen with 6His-tag (human)
- T1 construct: also called hCD47-his; soluble hCD47
- measurement.description: SPR Biacore T200, antibody captured, hCD47-his analyte;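 further: antibodies captured on anti-IgG (Fc) CM5 chip, five sequential 10 min antigen injections at rising concentrations, reference flow cell and antigen-free cycle as controls, 1:1 model fit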
readout.label: koff (s⁻¹)
Lab book: enter the figure in s⁻¹, no units written.

- binder: "Candidate 22 (VL008-AL13-8G5-8K3), mouse IgG (antibody, V domains shown, Recombinant mouse IgG2a or mIgG1 format, by assay; also called antibody 22) VH: QVQLQQPGAELVKPGASVKLSCKASGYTFTTYWMHWVKQRPGQGLEWIGMIHPNSGTTNYNEKFKSKATLTVDKSSSSTYMQLSSLTSEDSAVYYCTRSHYYDGHFSYWGQGTLVTVSA VL: DIVMSQSPSSLAVSAGEKVTMSCKSSQSLLNSRTRKNYLAWYQQKPGQSPKLLIYWASTRESGVPDRFTGSGSGTDFTLTISSVQAEDLAVYYCKQSYNLWTFGGGTRLEIK"
  koff (s⁻¹): 0.000325
- binder: "Candidate 15 (VT008-AL6-18G1-18K21), mouse IgG (antibody, V domains shown, Recombinant mouse IgG2a or mIgG1 format, by assay) VH: QVQLQQPGAELVKPGTSVKLSCKASGYTFINYWIHWVKQRPGRGLEWIGRIDPNTVDAKYNEKFKSKATLTVDKPSSIAYMQLSSLTSEDSAVYYCSRGGYTMDYWGQGTSVTVSS VL: DVVMTQTPLSLPVSLGDQASISCRSSQSLVHSNGNTYLHWYLQKPGQSPTLLIYKVSNRFSGVPDRFSGSGSGTDFTLKISRVEAEDLGIYFCFQSTHVPWTFGGGTKLEIK"
  koff (s⁻¹): 0.00239
- binder: "B6H12 (mouse IgG1, Abcam) (antibody, V domains shown) VH: EVQLVESGGDLVKPGGSLKLSCAASGFTFSGYGMSWVRQTPDKRLEWVATITSGGTYTYYPDSVKGRFTISRDNAKNTLYLQIDSLKSEDTAIYFCARSLAGNAMDYWGQGTSVTVSS VL: DIVMTQSPATLSVTPGDRVSLSCRASQTISDYLHWYQQKSHESPRLLIKFASQSISGIPSRFSGSGSGSDFTLSINSVEPEDVGVYYCQNGHGFPRTFGGGTKLEIK"
  koff (s⁻¹): "6.59e-05"
- binder: "Candidate 14 (VT008-AL6-14G1-16K1), mouse IgG (antibody, V domains shown, Recombinant mouse IgG2a or mIgG1 format, by assay) VH: QVQLQQPGAELVKPGASLRVSCKASGYTFTNYWMYWVRQRPGRGLEWIGWIDPNSGGTKYNEKFKSKATLTVDKPSSTAYMQLSSLTSEDSAVYNCARGGYTMDYWGQGTSVTVSS VL: DVVMTQTPLSLPVSLGDQASISCRASQSLVHSNGNTYLHWYLQKPGQSPKLLIYKVSNRFSGVPDRFSGSGSGTDFTLKISRVEAEDLGVYFCSQSTHVPLTFGAGTKLELK"
  koff (s⁻¹): 0.00337

// koff lookup, binder = Candidate 7 (VT008-AL5-10G7-10K7), mouse IgG (antibody, V domains shown) VH: QVQLQQPGAELVMPGSSVKLSCKTSGYTFTKYWMHWVKRRPGQGLEWIGEINPSDTYTNYNQKFKGKSTLTVDKSSSTAYMQLSSLTSEDSAVYFCARVATMVARGFAYWGQGTLVTVSA VL: DIVMTQSHKFMSTSVGDRVSITCKASQDVSGAVVWYQEKPGQSPNLLIYLATYRYTGVPDRFTGSGSGTDFTLTIRSVQAEDMAVYYCQQYYSIPWTFGGGTKLEIK , result: 0.00037

Entry 2A1 (mouse antibody from Inhibrx) (antibody, V domains shown) VH: EVQLQQSGAELVRSGASVKLSCTASGFNIKDYYLHWVKQRPEQGLEWIGWIDPDNGDTEFAPKFQGKATMTADTSSNTAYLQLSSLTSEDTAVYYCNAAYGSSSYPMDYWGQGTSVTV VL: DIKMTQSPSSLYASLGERVTITCKASQDIHRYLSWFQQKPGKSPKILIYRANRLVDGVPSRFSGSGSGQDYSLTISSLEYEDMGIYYCLQYDEFPYTFGGGTKLEMK , koff reported as 4.99e-05

Please fill in: koff reported for Candidate 26 (VT008-AL6-10G3-10K1), mouse IgG (antibody, V domains shown, Recombinant mouse IgG2a or mIgG1 format, by assay) VH: QVQLQQPGPELVKPGASVKLSCKASGYTFTNYWIHWLNQRPGRGLEWIGRIDPNSGGTKYNEKFKSKAILTVDKSSSTTYMQLSSLTSEDSAVYYCARGGYTMDYWGQGTSVTVSS VL: DVVMPQTPLSLPVSLGDHASISCRSSQSLLHSNGNTYLHWYLQKPGQSPKLLIYKVSYRFSGVPDRISGSGSGTDFTLKISRVEAEDLGVYFCFQSTHVPWTFGGGTKLEIK = 0.000372
